assay.notes: Cmax in rat at 10 mg/kg, po
Assay type: ADME, organism-based
Parameters: route oral, dose 10 mg/kg
details: in vivo
experimental.endpoint: log10 Cmax (log10 of the value in ng/mL)
Units before log transform: ng/mL; reported quantity: Cmax; transform: log10.

entry.smiles: CCN(C(=O)C1CC1)c1cc(-c2ccc(N3CCN(CC4CC4)CC3)nc2)cc(C(=O)NCc2c(C)cc(C)[nH]c2=O)c1C
log10 Cmax: 1.83
--
entry.smiles: CCN(C(=O)C1CC1)c1cc(-c2ccc(N3CCN(CC4CC4)CC3)nc2C)cc(C(=O)NCc2c(C)cc(C)[nH]c2=O)c1C
log10 Cmax: 2.38
--
entry.smiles: CCN(C(=O)C1CC1)c1cc(-c2cnc(N3CCN(CC4CC4)CC3)c(C)c2)cc(C(=O)NCc2c(C)cc(C)[nH]c2=O)c1C
log10 Cmax: 1.62
--
entry.smiles: CCN(C(=O)C1CCCC1)c1cc(-c2ccc(CN3CCOCC3)cc2)cc(C(=O)NCc2c(C)cc(C)[nH]c2=O)c1C
log10 Cmax: 2.67

Lab note: measured log10 Cmax of CCN(C(=O)C1CC1)c1cc(-c2ccc(CN3CCOCC3)cc2)cc(C(=O)NCc2c(C)cc(C)[nH]c2=O)c1C was 2.03

Data point: CCN1CCN(c2ccc(-c3cc(C(=O)NCc4c(C)cc(C)[nH]c4=O)c(C)c(N(CC)C(=O)C4CC4)c3)cc2)CC1 ; log10 Cmax = 2.06

* * *

assay.notes: AUC (0 to t) in mouse at 10 mg/kg, po measured up to 24 hrs by LC-MS/MS analysis
Assay type: ADME, organism-based
Parameters: route oral, dose 10 mg/kg, time <=24
details: in vivo
experimental.endpoint: AUC(0-t) at 24 h
Your reply should be a number followed by the unit it is expressed in.

Lab book: AUC(0-t) at 24 h of CCN(C(=O)C1CC1)c1cc(-c2ccc(N3CCN(CC4CC4)CC3)nc2C)cc(C(=O)NCc2c(C)cc(C)[nH]c2=O)c1C noted as 1000 ng·h/mL

* * *

assay.notes: Cmax in rat at 1 mg/kg, iv
Format: ADME, organism-based
Set-up: route intravenous, dose 1 mg/kg
details: in vivo
experimental.endpoint: Cmax (ng/mL)
Only the number, expressed in ng/mL, is required.

Some compounds with known Cmax results, for comparison:
entry.smiles: CCN(C(=O)C1CCCC1)c1cc(-c2ccc(CN3CCOCC3)cc2)cc(C(=O)NCc2c(C)cc(C)[nH]c2=O)c1C
value.units: ng/mL
observed.measurement: 824
//
entry.smiles: CCN(C(=O)C1CC1)c1cc(-c2ccc(CN3CCOCC3)cc2)cc(C(=O)NCc2c(C)cc(C)[nH]c2=O)c1C
value.units: ng/mL
observed.measurement: 686
//
entry.smiles: CCN(C(=O)C1CC1)c1cc(-c2cnc(N3CCN(CC4CC4)CC3)c(C)c2)cc(C(=O)NCc2c(C)cc(C)[nH]c2=O)c1C
value.units: ng/mL
observed.measurement: 609
//
entry.smiles: CCN(C(=O)C1CC1)c1cc(-c2ccc(N3CCN(CC4CC4)CC3)nc2C)cc(C(=O)NCc2c(C)cc(C)[nH]c2=O)c1C
value.units: ng/mL
observed.measurement: 406
//
entry.smiles: CCN1CCN(c2ccc(-c3cc(C(=O)NCc4c(C)cc(C)[nH]c4=O)c(C)c(N(CC)C(=O)C4CC4)c3)cc2)CC1
value.units: ng/mL
observed.measurement: 444

As a next step, examine the compound that follows.
Record CCN(C(=O)C1CC1)c1cc(-c2ccc(N3CCN(CC4CC4)CC3)nc2)cc(C(=O)NCc2c(C)cc(C)[nH]c2=O)c1C , field Cmax: 673

* * *

assay.notes: Cmax in mouse at 10 mg/kg, po measured up to 24 hrs by LC-MS/MS analysis
Format: ADME, organism-based
Set-up: route oral, dose 10 mg/kg, time <=24
details: in vivo
experimental.endpoint: Cmax (ng/mL)
Field: numeric (ng/mL). Do not append units.

# Cmax of CCN(C(=O)C1CC1)c1cc(-c2ccc(N3CCN(CC4CC4)CC3)nc2C)cc(C(=O)NCc2c(C)cc(C)[nH]c2=O)c1C = 671

* * *

assay.notes: AUC (0 to infinity) in rat at 1 mg/kg, iv
Format: ADME, organism-based
Parameters: route intravenous, time infinity, dose 1 mg/kg
details: in vivo
experimental.endpoint: AUC(0-inf) (ng·h/mL)
I only need the number, in ng·h/mL, no unit after it.

entry.smiles: CCN(C(=O)C1CC1)c1cc(-c2ccc(N3CCN(CC4CC4)CC3)nc2C)cc(C(=O)NCc2c(C)cc(C)[nH]c2=O)c1C
AUC(0-inf) / ng·h/mL: 195

The reported value for CCN1CCN(c2ccc(-c3cc(C(=O)NCc4c(C)cc(C)[nH]c4=O)c(C)c(N(CC)C(=O)C4CC4)c3)cc2)CC1 in terms of AUC(0-inf) is 241

response.value for CCN(C(=O)C1CC1)c1cc(-c2ccc(N3CCN(CC4CC4)CC3)nc2)cc(C(=O)NCc2c(C)cc(C)[nH]c2=O)c1C (field: AUC(0-inf)) = 277

# AUC(0-inf) (compound: CCN(C(=O)C1CC1)c1cc(-c2cnc(N3CCN(CC4CC4)CC3)c(C)c2)cc(C(=O)NCc2c(C)cc(C)[nH]c2=O)c1C ) is 277

Lookup result for CCN(C(=O)C1CCCC1)c1cc(-c2ccc(CN3CCOCC3)cc2)cc(C(=O)NCc2c(C)cc(C)[nH]c2=O)c1C ; measured AUC(0-inf): 269

AUC(0-inf) measured on CCN(C(=O)C1CC1)c1cc(-c2ccc(CN3CCOCC3)cc2)cc(C(=O)NCc2c(C)cc(C)[nH]c2=O)c1C = 242

* * *

assay.notes: AUC (0 to infinity) in rat at 10 mg/kg, po
Type: ADME, organism-based
Set-up: time infinity, route oral, dose 10 mg/kg
details: in vivo
experimental.endpoint: AUC(0-inf) (ng·h/mL)
Provide the reading as a plain figure in ng·h/mL.

Below, 3 molecules whose answers are already recorded.
entry.smiles: CCN(C(=O)C1CC1)c1cc(-c2ccc(N3CCN(CC4CC4)CC3)nc2C)cc(C(=O)NCc2c(C)cc(C)[nH]c2=O)c1C
observed.measurement: 604

entry.smiles: CCN(C(=O)C1CC1)c1cc(-c2ccc(N3CCN(CC4CC4)CC3)nc2)cc(C(=O)NCc2c(C)cc(C)[nH]c2=O)c1C
observed.measurement: 260

entry.smiles: CCN(C(=O)C1CC1)c1cc(-c2ccc(CN3CCOCC3)cc2)cc(C(=O)NCc2c(C)cc(C)[nH]c2=O)c1C
observed.measurement: 244

Shifting focus to the molecule that follows.
For reference, reported AUC(0-inf) for CCN(C(=O)C1CCCC1)c1cc(-c2ccc(CN3CCOCC3)cc2)cc(C(=O)NCc2c(C)cc(C)[nH]c2=O)c1C stands at 406

* * *

assay.notes: Half life in mouse at 1 mg/kg, iv measured up to 24 hrs by LC-MS/MS analysis
Type: ADME, organism-based
details: in vivo
experimental.endpoint: t1/2 (h)
Response body: numeric value in h, unit text excluded.

Item: CCN(C(=O)C1CC1)c1cc(-c2ccc(N3CCN(CC4CC4)CC3)nc2C)cc(C(=O)NCc2c(C)cc(C)[nH]c2=O)c1C | t1/2: 5.38

* * *

assay.notes: Oral bioavailability in mouse at 10 mg/kg measured up to 24 hrs by LC-MS/MS analysis
Type: ADME, organism-based
details: in vivo
experimental.endpoint: bioavailability (%)
Numbers only; they are read as %.

// bioavailability lookup, molecule = CCN(C(=O)C1CC1)c1cc(-c2ccc(N3CCN(CC4CC4)CC3)nc2C)cc(C(=O)NCc2c(C)cc(C)[nH]c2=O)c1C , result: 27

* * *

Measured CL/F accompanies every entry in the list below.
assay.notes: Clearance in rat at 10 mg/kg, po
Type: ADME, organism-based
details: in vivo
Number only, in L/h/kg; omit the unit.

Observe how each entry below is paired with its result.
entry.smiles: CCN(C(=O)C1CCCC1)c1cc(-c2ccc(CN3CCOCC3)cc2)cc(C(=O)NCc2c(C)cc(C)[nH]c2=O)c1C
CL/F / L/h/kg: 32.5
//
entry.smiles: CCN(C(=O)C1CC1)c1cc(-c2ccc(N3CCN(CC4CC4)CC3)nc2)cc(C(=O)NCc2c(C)cc(C)[nH]c2=O)c1C
CL/F / L/h/kg: 40.5
//
entry.smiles: CCN(C(=O)C1CC1)c1cc(-c2ccc(CN3CCOCC3)cc2)cc(C(=O)NCc2c(C)cc(C)[nH]c2=O)c1C
CL/F / L/h/kg: 69.9

Next:
// sample CCN(C(=O)C1CC1)c1cc(-c2ccc(N3CCN(CC4CC4)CC3)nc2C)cc(C(=O)NCc2c(C)cc(C)[nH]c2=O)c1C , its CL/F was 17.4

The reported measurements were obtained from ChEMBL document CHEMBL4831544.
